Target Or System: T1, human mutCALR on BaF3 cells stably expressing human MPL and human mutCALR (MPL-mutCALR cells) (human)
T1 construct: also called mutant calreticulin
T1 chain: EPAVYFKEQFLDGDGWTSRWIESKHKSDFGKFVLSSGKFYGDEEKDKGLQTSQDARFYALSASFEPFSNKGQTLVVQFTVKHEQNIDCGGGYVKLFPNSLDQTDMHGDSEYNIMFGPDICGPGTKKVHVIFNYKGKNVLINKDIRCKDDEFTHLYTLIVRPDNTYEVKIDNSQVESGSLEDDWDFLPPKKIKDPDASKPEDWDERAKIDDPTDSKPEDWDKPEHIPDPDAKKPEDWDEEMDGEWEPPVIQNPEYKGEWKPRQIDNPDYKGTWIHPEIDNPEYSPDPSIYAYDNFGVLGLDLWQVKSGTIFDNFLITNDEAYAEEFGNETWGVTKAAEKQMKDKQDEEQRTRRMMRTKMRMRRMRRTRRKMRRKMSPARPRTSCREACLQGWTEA
Run Description: flow cytometry, BaF3 MPL-mutCALR cells
Procedure: On the day of the assay, cells were washed and resuspended in assay buffer. Approximately 200,000 cells/well were added to 96-well plates and stained with the indicated concentration of antibodies for 30 minutes on ice. Cells were then washed and stained with goat anti-human secondary conjugated to R-phycoerythrin (R-PE) (Jackson Immuno Research Laboratories) for 30 minutes on ice. The cells were then washed and analyzed by flow cytometry.
Assay Readout: MPL-mutCALR AUC
I'd appreciate a reply containing only the number, no unit.

### Prompt Output MPL-mutCALR AUC of anti-mutCALR antibody clone 12 (antibody, human IgG1, lambda, V domains shown, human IgG1) VH: EVQLVQSGAEVKKPGASVKVSCKVSGYTLTELSMQWVRQAPGKGLEWMGGFDPDGGETMYAEKFQGRLTVTEDTSTDTVYMELRSLTSEDTALYFCATSPGYDFFDYWGQGTLVTVSS VL: SYVLTQPPSVSVAPGQTARVSCGGNNIGSKSVNWYRQKPGQAPVLVIYDDSDRPSGIPERFSGSNSGNTATLTINRVEAGDEADYYCQVWDSSNDLLIFGGGTKLTVLG
### Response 61000

### Prompt Output MPL-mutCALR AUC of anti-mutCALR antibody clone 38 (antibody, human IgG1, kappa, V domains shown, human IgG1) VH: EVQPVQSGAEVKKPGSSVKVSCKASGGTFSSYAISWVRQAPGQGLEWMGLVDPEDGETIYAEKFRGRVTITADTSTDTAYMELSSLRSEDTAVYYCATEESYGPWGQGTLVTVSS VL: DIQLTQSPSSLSASVGDRVTITCQASQDISNYLNWYQQKPGKAPKLLIYDASNLETGVPSRFSGSGSGTEFTLTISSLQPEDFATYYCQQLNSYPLTFGGGTKLEIKR
### Response 37000

### Prompt Output MPL-mutCALR AUC of anti-mutCALR antibody clone 176 (antibody, human IgG1, lambda, N297A, V domains shown) VH: EVQLVQSGAEVKKPGASVKVSCKVSGYTLTELSMQWVRQAPGKGLEWMGGFDPDAGETMYAEKFQGRLTVTEDTSTDTVYMELSSLRSEDTAVYFCATSPGYDFFDYWGQGTLVTVSS VL: SYVLTQPPSVSVAPGQTARITCGGSDIGDEIVHWYQQKPGQAPVLVVYDDSDRPSGIPERFSGSNSGNTATLTISRAQAGDEADYYCQVWDSSSDHLIFGGGTKLTVLG
### Response 48400

Each recorded value in this set is attributed to patent US20230272055A1.
